Biological target: T1, GST–PPARγ fusion protein (purified ligand binding domain of PPARγ)
T1 chain: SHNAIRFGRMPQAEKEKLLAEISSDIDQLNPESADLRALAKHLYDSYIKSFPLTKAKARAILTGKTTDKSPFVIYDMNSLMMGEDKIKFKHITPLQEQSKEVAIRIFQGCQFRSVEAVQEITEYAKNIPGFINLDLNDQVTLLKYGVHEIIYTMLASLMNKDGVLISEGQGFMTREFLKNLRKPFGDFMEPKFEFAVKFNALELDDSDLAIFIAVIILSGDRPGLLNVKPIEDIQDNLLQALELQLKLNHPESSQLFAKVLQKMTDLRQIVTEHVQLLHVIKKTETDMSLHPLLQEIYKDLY
Assay: FRET or BRET; homogeneous TR-FRET as a1, 12-concentration dose–response of pioglitazone; the EC50 is of the compound; delta ratio in % of the reference compound at 10 μM (RO4899100 for PPARα, edaglitazone for PPARγ)
Details: both partners purified
Where no end group is shown, it is not given here. The star is where a group is joined. Biotin = O=C1N[C@H]2[C@H](CS[C@H]2CCCCC(=O)*)N1; Ahx = NCCCCCC(=O)O
parameter.measured: EC50 of pioglitazone for recruitment (nM)

[
  {
    "binder": "{Biotin-Ahx}-PKKENNALLRYLLDRDDPSDV (source: synthetic peptide (Jerini or Biosynthan, Berlin)) [RAC3_M3 cofactor peptide (receptor-associated co-activator 3, motif 3)]",
    "experimental.result": 1860
  }
]

[I] {Biotin-Ahx}-CPSSHSSLTERHKILHRLLQEGSPS (source: synthetic peptide (Jerini or Biosynthan, Berlin)) [SRC1_M2 cofactor peptide (steroid receptor co-activator 1, motif 2)]
[II] {Biotin-Ahx}-LDASKKKESKDHQLLRYLLDKDEKD (source: synthetic peptide (Jerini or Biosynthan, Berlin)) [SRC1_M3 cofactor peptide (steroid receptor co-activator 1, motif 3)]
## Task # argmax over EC50 of pioglitazone for recruitment for candidates I and II Please identify the chosen entry by its label.
## Result II
(II: 2120 nM, I: 196 nM)

[P] {Biotin-Ahx}-TSGPQTPQAQQKSLLQQLLTE (source: synthetic peptide (Jerini or Biosynthan, Berlin)) [SRC1_M4 cofactor peptide (steroid receptor co-activator 1, motif 4)]
[Q] {Biotin-Ahx}-DSKYSQTSHKLVQLLTTTAEQQLRH (source: synthetic peptide (Jerini or Biosynthan, Berlin)) [SRC1_M1 cofactor peptide (steroid receptor co-activator 1, motif 1)]
## Task EC50 of pioglitazone for recruitment comparison. Which is larger, P or Q ? // output: label of the selected item
## Result Q
(Q: 2260 nM, P: 222 nM)
